# credit: patent US20230272056A1

# STUDY_TARGET: T1, human LAP-TGFB1 Fc fusion (human)
# T1 construct: also called human LAP-TGFβ1-Fc; human LAP-TGFβ-Fc isoform 1
# T1 sequence (chain, as listed by the source limits assumed): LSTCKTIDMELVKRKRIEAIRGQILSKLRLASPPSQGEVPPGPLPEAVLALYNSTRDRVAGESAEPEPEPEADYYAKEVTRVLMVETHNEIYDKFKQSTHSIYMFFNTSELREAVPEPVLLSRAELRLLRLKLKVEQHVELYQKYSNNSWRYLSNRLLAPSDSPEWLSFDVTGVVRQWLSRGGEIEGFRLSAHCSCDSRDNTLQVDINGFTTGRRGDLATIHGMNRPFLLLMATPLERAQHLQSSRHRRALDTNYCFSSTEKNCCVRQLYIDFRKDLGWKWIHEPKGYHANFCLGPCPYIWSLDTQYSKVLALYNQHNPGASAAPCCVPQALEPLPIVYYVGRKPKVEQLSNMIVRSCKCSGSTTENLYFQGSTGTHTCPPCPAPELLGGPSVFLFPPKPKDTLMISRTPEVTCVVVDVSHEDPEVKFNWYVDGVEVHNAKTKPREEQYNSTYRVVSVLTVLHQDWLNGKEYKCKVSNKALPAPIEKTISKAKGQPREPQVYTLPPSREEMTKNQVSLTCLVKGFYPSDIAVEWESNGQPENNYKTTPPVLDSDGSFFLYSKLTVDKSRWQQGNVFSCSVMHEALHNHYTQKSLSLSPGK
# METHOD_SUMMARY: BLI off-rate screen
Measured Binding response, listed per entry for reference.
Use nm as the unit, but write only the number.

Here are 2 binders together with their reported answers.
VH Q53Y (79BIT) (Fab, V domains shown) VH: EVQLVQSGAEVKKPGASVKVSCKASGYTFTSYWMHWVRQAPGQGLEWMGRIDPYSGGIKYAQKFQGRATLTVDTSTSTAYMELSRLRSDDTAVYYCARWDYGGYFDVWGQGTLVTVSS VL: DIQMTQSPSSLSASVGDRVTITCRASQDITNYLNWYQQKPGKAVKLLIYYTSRLHSGVPSRFSGSGSGTDYTLTISSLQPEDFATYFCQQGDTLPWTFGQGTKLEIKR :: 0.625
VL N34Y (47BIT) (Fab, V domains shown) VH: EVQLVQSGAEVKKPGASVKVSCKASGYTFTSYWMHWVRQAPGQGLEWMGRIDPQSGGIKYAQKFQGRATLTVDTSTSTAYMELSRLRSDDTAVYYCARWDYGGYFDVWGQGTLVTVSS VL: DIQMTQSPSSLSASVGDRVTITCRASQDITNYLYWYQQKPGKAVKLLIYYTSRLHSGVPSRFSGSGSGTDYTLTISSLQPEDFATYFCQQGDTLPWTFGQGTKLEIKR :: 0.221

Enquiry: GET /values?readout=Binding response&item= VL I29Y (43BIT) (Fab, V domains shown) VH: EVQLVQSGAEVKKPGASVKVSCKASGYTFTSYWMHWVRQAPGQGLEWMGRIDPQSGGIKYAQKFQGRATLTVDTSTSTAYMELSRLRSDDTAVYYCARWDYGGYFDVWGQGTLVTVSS VL: DIQMTQSPSSLSASVGDRVTITCRASQDYTNYLNWYQQKPGKAVKLLIYYTSRLHSGVPSRFSGSGSGTDYTLTISSLQPEDFATYFCQQGDTLPWTFGQGTKLEIKR
Return: 0.071
